Data origin, for the record: ChEMBL document CHEMBL1148955

Tested on: PBMC
Test: Induction of IL6 production in human PBMC at 10 ug/ml after 48 hrs by ELISA
Type: functional
Please provide measured Activity for the entries that follow.
One number for each entry, in pg/mL.

Look over these answered cases.
CC1(C)[C@@H](O)CC[C@]2(C)[C@H]3CC=C4[C@H]5C[C@](C)(C(=O)O)CC[C@]5(C)CC[C@@]4(C)[C@]3(C)CC[C@@H]12 [EPIKATONIC ACID] = 22.9
CC(=O)OC[C@]12[C@H](OC(C)=O)[C@H](OC(C)=O)[C@@H]3[C@@H](OC(=O)c4ccccc4)[C@@]14O[C@@]3(C)COC(=O)c1cccnc1C(C)C(C)C(=O)O[C@@H]([C@H](OC(C)=O)[C@@H]2OC(=O)c1ccccc1)[C@]4(C)O (some centres undefined) = 260.8
C[C@@H]1[C@@]23CC[C@H]4[C@@](C)(CC[C@@]5(C)[C@@H]6C[C@](C)(C(=O)O)CC[C@]6(C)CC[C@]45C)[C@@H]2CC[C@@]1(O)OC3 [SALASPERMIC ACID] = 109.6

# input Form field: reported Activity of CC(C)c1cc2c(cc1O)[C@@]1(C)CCC[C@](C)(C(=O)O)[C@@H]1CC2 [LAMBERTIC ACID]
# output 1454.4
